Reference for the values: PubChem BioAssay (NCI)

Tested on: HOP-92 NSCLC
Test: NCI-60 one-dose screen, 48 h (100 = growth as untreated, 0 = no growth, -100 = all killed)
Conditions: 10 µM unless noted
The panel holds about 83,000 compounds, 20% with a hit somewhere; the sample as a whole holds those more often.
Recorded Endpoint: growth (%)

CNCCCn1c2c(c3ccc([N+](=O)[O-])cc3c1=O)C(=O)c1cc(OC)cnc1-2 : -7.43
C[C@@H]1CC[C@@H]2[C@@H]1[C@H](OC(=O)/C=C/c1ccccc1)[C@]1(c3ccccc3)C[C@@H](OC(=O)CO)[C@@]2(C)O1 : 78.8
O=S(=O)(NCCCNc1cc(-c2cn(-c3ccccc3)nc2-c2ccccc2)ccn1)c1ccc(C(F)(F)F)cc1 : 32.2
Cc1cccc(NC(=O)c2sc3nc4c(cc3c2N)C(=O)CCC4)c1 : 64.5

* * *

Tested on: IGROV1 ovarian
Assay: NCI-60 one-dose screen, 48 h (100 = growth as untreated, 0 = no growth, -100 = all killed)
Conditions: 10 µM unless noted
This is part of a sample that, as a whole, favours compounds with a hit. Of some 83,000 tested, about 20% had one in any assay.
// assign 1 if growth falls strictly below 70%, else -1 (ties count as -1)

CC[n+]1ccc2c(c1)C(=O)c1nccc3c1c-2nc1ccccc13 : 1
CCNS(=O)(=O)c1ncnc2nc[nH]c12 : -1
CCCCCCCCCCNC(=O)CCl : 1
COc1ccc2[nH]c(=O)c(/C=C/C(=O)c3ccc(Nc4nccc(-c5ccc6ccccc6c5)n4)cc3)cc2c1 : -1
COc1cnc2c(c1)C(=O)c1c-2n(CCCN2CCCC2)c(=O)c2cc([N+](=O)[O-])ccc12 : 1
NS(=O)(=O)c1ccc(Nc2nc3n[nH]c(Nc4ccccc4)c3c(=O)[nH]2)cc1 : -1
O=c1ccc2cc3ccccc3cc2[nH]1 : -1
CCOC(=O)Cc1cnn(C)c1NC(=O)c1ccc(Cl)cc1NC(C)=O : -1
Cc1ccc2c(NCCCN(C)C)c3c(C)nn(C)c3nc2c1 : 1
Oc1ccccc1N=Cc1c(O)ccc2ccccc12 : 1
CN1CCN(Cc2ccc(NC(=O)c3[nH]ncc3Nc3ncnc4sccc34)cc2)CC1 : 1
CCCCNC(=O)NS(=O)(=O)c1ccc(N2N=C(c3cc(C)ccc3C)CC2c2cc(OC)c(OC)c(OC)c2)cc1 (stereo unspecified) : 1
Oc1c(Cl)cc(Cl)cc1CNc1nccnn1 : -1
CCN(CC)CC(O)CNc1c2ccc([N+](=O)[O-])cc2nc2cc(OC)c(OC)cc12 (stereo unspecified) : 1
O=C(CN1CCOCC1)Nc1ccc(Cn2nnc3c2C(=O)c2nnn(Cc4ccc(NC(=O)CN5CCOCC5)cc4)c2C3=O)cc1 : 1
COc1cccc(-n2cc(-c3nc(Nc4cc(C)[nH]n4)c4ccccc4n3)nn2)c1 : 1
CC(C)c1c(C(=O)Nc2ccccc2)c(-c2ccccc2)c(-c2ccc(F)cc2)n1CC[C@@H]1CC=CC(=O)O1 : 1
COc1ccc(-c2cn3c(ccc4ccccc43)n2)cc1 : -1
Cc1ccccc1CCO : -1
Cn1c2ccccc2c2c3c(c4c5ccccc5n(CCCCCC#N)c4c21)C(=O)N(O)C3=O : 1

* * *

Items are presented alongside their recorded growth.
Test system: DU-145 prostate
Assay: NCI-60 one-dose screen, 48 h (100 = growth as untreated, 0 = no growth, -100 = all killed)
Conditions: 10 µM unless noted
This is part of a sample that, as a whole, favours compounds with a hit. Of some 83,000 tested, about 20% had one in any assay. The source made the active and inactive calls. The calls were made as follows: active = growth percent below 10; inactive = the rest.
Recorded Endpoint: growth

CC/C(Cc1ccccc1)=C(\c1ccc(OCCN2CCCC2)cc1)c1ccc(OC(C)=O)cc1 : 95.6% (inactive)
Oc1ccccc1N=Cc1c(O)ccc2ccccc12 : 82.3% (inactive)
Nc1nc(SCc2ccccc2)c2ncn(C3CCCC3)c2n1 : 101% (inactive)
Cc1cc(=O)oc2cc(Oc3nc(-c4cccs4)cn4c(-c5cccs5)cnc34)ccc12 : 55.4% (inactive)
NC(CC(=O)O)C(=O)OCc1ccccc1 (stereo unspecified) : 109% (inactive)
COc1ccc(-c2cc(NC(=O)Nc3ccc(O)cc3)no2)cc1 : 66.7% (inactive)
Brc1cccc(-c2nc(-c3ccc4c(c3)OCCO4)co2)c1 : 88.2% [25 µM] (inactive)
COc1ccc(-c2cn3c(-c4ccc(OC)cc4)cnc3c(Oc3ccc4c(C)cc(=O)oc4c3)n2)cc1 : 29.5% (inactive)
CCCCN(CC)CCCCCCCCCCN1CCCc2cc(OC)ccc21 : 48.5% (inactive)
COc1ccc(C2c3ccc4ccccc4c3Oc3ncnc(N)c32)cc1 (stereo unspecified) : 102% (inactive)
C=C1CCC2C3(C)COC(c4ccc(SC)cc4)OC3CCC2(C)C1C/C=C1/C(=O)OCC1O (stereo unspecified) : 88.1% (inactive)

* * *

System: RPMI-8226 leukemia
Assay: NCI-60 one-dose screen, 48 h
Settings: 10 µM unless noted
The panel holds about 83,000 compounds, 20% with a hit somewhere; the sample as a whole holds those more often. Calls of active or inactive are those of the source. How the source made its calls: active means growth percent below 10; inactive means the rest.
Labels: active, inactive

COc1cc(NCCCCN=C(N)NC(N)=NC(C)C)c2ncccc2c1 : inactive
COc1cccc(NC(=O)c2sc3nc4c(cc3c2N)CN(Cc2ccccc2)CC4)c1 : inactive
O=C1Nc2ccccc2C12CC(c1ccc(Cl)cc1)=NN2 (stereo not given) : inactive
Nc1cc2nc3ccccc3sc-2cc1=O : inactive
O=C1NC(=O)C(CC(=O)n2c(-c3ccccc3)nc3ccccc32)C(=O)N1 : inactive
COc1ccc(C2CC(=O)Nc3c2c(C)nn3-c2nc3ccccc3[nH]2)cc1 (stereo not given) : inactive
CN1Cc2c(cc(CN3CCCCC3)n2C)C(c2ccc(Br)cc2)C1 (stereo not given) : inactive
COc1cc(NCCCCCN=C(N)NC(N)=NC(C)C)c2ncccc2c1 : inactive
Cc1ccc2c(c1)C(=O)c1c-2c(OCCCN(C)C)nc2ccccc12 : active
COc1cccc2c1C(=O)c1c(O)c3c(c(O)c1C2=O)C[C@@](O)(/C(C)=N/NC(=O)c1ccc(Cl)cc1)C[C@@H]3OC1CC(N)C(O)C(C)O1 (stereo not given in full) : active

* * *

Test system: SF-295 CNS
Experiment: NCI-60 one-dose screen, 48 h (100 = growth as untreated, 0 = no growth, -100 = all killed)
Conditions: 10 µM unless noted
Method: Cells are grown in 96 well plates and exposed to the test compound for 48 hours. Compounds are tested at a single concentration, which is 10^-5 M for most compounds. The reported endpoint is percent growth (GI% or GIPRCNT), where numbers from 0 - 100% represent growth inhibition, and numbers from -100% - 0 represent cell death. For example, a value of 40 represents 60% growth inhibition. A value of 0 means no net growth occurred over the course of the experiment. […]
This is part of a sample that, as a whole, favours compounds with a hit. Of some 83,000 tested, about 20% had one in any assay.
Items are presented alongside their recorded growth.
Recorded Endpoint: growth (%)

Cc1ccc(Nc2c(C(N)=O)cnc3ccc(-c4csc(N)n4)cc23)cc1 : 98.7
COc1ccc(CNc2nccnn2)cc1 : 101
CCCCN(CCCC)Cc1c(C)[nH]c2cc(OC)ccc2c1=O : 98.3
Cc1ccc(-c2nc(/C=N/Nc3cc(C)nc4ccc(Cl)cc34)c(C)o2)cc1 : 17.1
CC1=N/C(=C\c2cccc(Br)c2)C(=O)O1 : 108
O=C(Cc1ccccc1)c1ccc(Cl)cc1 : 103
CC1(C)CC(=O)C(c2c(-c3ccccc3)[nH]c3[nH]c(=S)[nH]c(=O)c23)=C(O)C1 : 152
CCOC(=S)SCc1ccc(Cl)cc1 : 89.4
CCN(CC)CC#CCOC(=O)[C@]1(C)CCC[C@@]2(C)[C@H]1CC(C=O)=C1C=C(C(C)C)CC[C@@H]12 : 71.8
CCCNc1nc(SC)nc(-c2cccc(N)c2)c1C#N : 98.7
C=C1CCC2C3(C)COC(c4cccc(Cl)c4)OC3CCC2(C)C1/C=C/C1=CCOC1=O (stereo unspecified) : 45.7

* * *

System: UO-31 renal
Assay: NCI-60 one-dose screen, 48 h (100 = growth as untreated, 0 = no growth, -100 = all killed)
Conditions: 10 µM unless noted
The panel holds about 83,000 compounds, 20% with a hit somewhere; the sample as a whole holds those more often. The source made the active and inactive calls. How the source made its calls: active means growth percent below 10; inactive means the rest.
Items are presented alongside their recorded growth.
Recorded Endpoint: growth

S=c1[nH]nc(CSc2ncnc3c2c(-c2ccccc2)cn3-c2ccc(Cl)cc2)o1 : 73% (inactive)
O=C(CNC1C2CC3CC(C2)CC1C3)Sc1nnc2sc3ccccc3n12 (stereo unspecified) : 78.3% (inactive)
CCCNc1nc(SC)nc(-c2cccc(N)c2)c1C#N : 76.8% (inactive)
N#Cc1c2c(nc3n[nH]c(N)c13)CCCC2 : 71.7% (inactive)
CCN(CC)c1ccc(CNc2cc(C)nc3ccc(OC)cc23)cc1 : 3.78% (active)
O=C1OC2C(I)C3CC2C1C3c1ccccc1 (stereo unspecified) : 95.8% (inactive)
O=[N+]([O-])c1cccc(-c2nc3sccn3c2-c2ccnc(NCCCNS(=O)(=O)c3ccc(F)cc3)n2)c1 : -26.8% (active)
c1ccc(-c2nc(N3CCOCC3)c3c4c(sc3n2)CCCCC4)nc1 : 35.7% (inactive)
O=C(O)C(O)C(O)C(=O)O.[NH-]C1CCCCC1[NH-].[Pt+2] (stereo unspecified) : 97.9% (inactive)
C#Cc1nc(Nc2cc(C)[nH]n2)c2ccccc2n1 : -36.1% (active)
Cc1ccc2cnc(N)c(C#Cc3cncc(C(=O)Nc4ccc(CN5CCN(C)CC5)c(C(F)(F)F)c4)c3)c2c1 : -93.3% (active)
